- Tested on: SK-MEL-2 melanoma
- ASSAY_EXPLANATION: NCI tumour cell line growth inhibition, 48 h; in the data active = GI50 below about 0.43 µM; inactive = the rest
Result category, one only: t (active), f (inactive)

// param item: CC(=O)O[C@@H]1c2c(c3c(=O)c4cccc(O)c4c(=O)c=3c2=[N+]=[N-])[C@H](OC(C)=O)[C@@H](OC(C)=O)[C@]1(C)O ; yields the recorded call f

In this assay, the call recorded for CCOc1ccc(-c2nc3ccc(-c4nc5ccc(N6CCN(C)CC6)cc5[nH]4)cc3[nH]2)cc1 was what? f

So what was the verdict on CC(C)CCN(CCC(C)C)CC(=O)Nc1ccc(S(=O)(=O)c2ccc(NC(=O)CN(CCC(C)C)CCC(C)C)cc2)cc1 in this test? f

What classification did O=C(COc1ccccc1)NNc1ccccc1 end up with in this test? f

How was COc1ccc(Nc2ncc(I)c(NCCCNC(=O)C3CCC3)n2)cc1 classified in this test? f

Dear colleague, could you share the recorded outcome for Cc1[nH]c(C(=O)Nc2ccc(C(=O)NCCN)cc2OC(C)C)c(Cl)c1Cl when you have a moment? f

Assay outcome for Cc1cc(-c2nc3sc(C)cn3c2/C=N/N=C(N)N)c(C)s1 : what was it? f

Please let me know the test result on file for Cc1[nH]c2ccccc2c1CO . f

Hi, do you know how CCCCCCOC(=O)CC1=C(C)/C(=C/c2[nH]c(-c3ccc[nH]3)cc2OC)N=C1C came out in this test? t

Entry Clc1ccc(-c2cnc3c(-c4ccnc(N5CCNCC5)c4)cnn3c2)cc1 : call = ? f

Called result for CC[C@]12CN3CCc4c([nH]c5ccccc45)[C@@](C(=O)OC)(c4cc5c(cc4OC)N(C)[C@H]4[C@@](O)(C(=O)OC)[C@H](OC(C)=O)[C@]6(CC)C=CCN7CC[C@]54[C@@H]76)CC(C3)[C@H]1O2 (stereo partly drawn) t

Tell me the recorded outcome of this test for c1cc(OCCN2CCCC2)ccc1CNc1ccc2nc(CCC3CCCCC3)[nH]c2c1 . f

Called result for COc1cc2c3c(n(CCCN=[N+]=[N-])c(=O)c2cc1OC)-c1ccc([N+](=O)[O-])cc1C3=O f
